- tested system: T1, recombinant mouse PCSK9 (mouse, UniProt Q80W65 35-694)
- T1 construct: also called mPCSK9; murine PCSK9
- T1 sequence (Q80W65 other isoform, or with tags, fused parts or gaps limits assumed): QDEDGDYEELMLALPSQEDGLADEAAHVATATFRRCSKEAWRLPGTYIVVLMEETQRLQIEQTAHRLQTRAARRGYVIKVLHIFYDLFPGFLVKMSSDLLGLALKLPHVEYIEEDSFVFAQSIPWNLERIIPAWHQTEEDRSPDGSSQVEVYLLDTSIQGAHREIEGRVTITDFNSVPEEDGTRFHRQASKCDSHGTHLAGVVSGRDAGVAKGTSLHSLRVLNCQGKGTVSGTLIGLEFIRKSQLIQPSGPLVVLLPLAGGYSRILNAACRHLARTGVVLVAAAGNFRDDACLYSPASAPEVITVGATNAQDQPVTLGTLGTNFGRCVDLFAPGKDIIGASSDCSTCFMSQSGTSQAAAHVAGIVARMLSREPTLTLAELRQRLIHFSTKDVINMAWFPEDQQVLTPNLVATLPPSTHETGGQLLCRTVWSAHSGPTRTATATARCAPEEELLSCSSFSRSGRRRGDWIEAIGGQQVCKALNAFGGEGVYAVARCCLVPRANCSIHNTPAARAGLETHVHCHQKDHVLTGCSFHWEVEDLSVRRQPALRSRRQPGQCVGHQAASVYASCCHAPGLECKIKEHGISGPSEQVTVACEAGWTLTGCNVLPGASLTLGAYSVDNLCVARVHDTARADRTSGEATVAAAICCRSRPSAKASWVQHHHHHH
- assay remarks: SPR (Biacore 3000); full-length IgG captured on anti-mouse IgG, PCSK9 injected
property name: Kd (nM)

[[record]]
binder = "anti-PCSK9 antagonist monoclonal antibody 4A5 (antibody, V domains shown, Murine full-length IgG from a hybridoma; also called 4A5.G3 (subclone); ATCC PTA-8985) VH: EVQLQQSGPELVKPGASVKISCKASGYTFTDYYMNWVKQSHGKSLEWIGDINPNNGGTTYNQKFKGKATLTVDKSYSTAYMELRSLTSEDSAVYYCARWLLFAYWGQGTLVTVSA VL: DIVMTQSQKFMSTSVGDRVSVTCKASQNVGTNVAWYQQKPGQSPKALIYSASYRYSGVPDRFTGSGSGTDFTLTISNVLSEDLAEYFCQQFYSYPYTFGGGTKLEIKR"
property_name = "Kd"
endpoint_result = 5.1

[[record]]
binder = "anti-PCSK9 antagonist monoclonal antibody 5A10 (antibody, V domains shown, Murine full-length IgG from a hybridoma; Mouse precursor of L1L3; also called 5A10.B8 (subclone)) VH: QVQLQQPGAELVKPGASVKLSCKASGYTFTSYWMHWVKQRPGQGLEWIGEINPSNGRTNYNEKFKSKATLTVDKSSSTAYMQLSSLTSEDSAVYYCARERPLYAMDYWGQGTSVTVSS VL: DIVMTQSHKFMSTSVGDRVSITCKASQDVSTAVAWYQQKPGQSPKLLIYSASYRYTGVPDRFTGSGSGTDFTFTISSVQAEDLAVYYCQQRYSTPRTFGGGTKLEIKR"
property_name = "Kd"
endpoint_result = 3.9

[[record]]
binder = "anti-PCSK9 antagonist monoclonal antibody 6F6 (antibody, V domains shown, Murine full-length IgG from a hybridoma; also called 6F6.G10.3 (subclone); ATCC PTA-8984) VH: EVQLQQSGPELVKPGASVKISCKASGYTFTDYYMNWVKQSHGKSLEWIGDINPNNGGTSYNQKFKGKATLTVDKSSSTAYMELRSLTSEDSAVYYCAGGGIYYRYDRNYFDYWGQGTTLTVSS VL: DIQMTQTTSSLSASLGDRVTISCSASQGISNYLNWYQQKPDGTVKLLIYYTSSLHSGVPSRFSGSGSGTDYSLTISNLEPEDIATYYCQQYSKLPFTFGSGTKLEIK"
property_name = "Kd"
endpoint_result = 17.7

[[record]]
binder = "anti-PCSK9 antagonist monoclonal antibody 7D4 (antibody, V domains shown, Murine full-length IgG from a hybridoma; also called 7D4.4 (subclone); ATCC PTA-8983) VH: EVKLVESEGGLVQPGSSMKLSCTASGFTFSDYYMAWVRQVPEKGLEWVANINYDGSNTSYLDSLKSRFIISRDNAKNILYLQMSSLKSEDTATYYCAREKFAAMDYWGQGTSVTVSS VL: DIVMTQSHKFMSTSFGDRVSITCKASQDVSNALAWYQQKPGHSPKLLIFSASYRYTGVPDRFTGSGSGTDFTFTISSVQAEDLAVYYCQQHYSTPWTFGGGTKLEIKR"
property_name = "Kd"
endpoint_result = 1.3


Value source: patent US20100068199A1
